- System: Escherichia coli
- assay protocol: Inhibition of LspA in Escherichia coli CFT073imp4213 harboring outer membrane-permeable mutant assessed as inhibition of bacterial growth
Starred links: 1 amine or outer side, 2 acyl side, 3 side chain; linkers in the order of their positions; H or OH if unused. Non-standard residues stand in square brackets, D forms with d. Residues, ends and D or L forms follow the SMILES beside them. *: point of attachment. dAlaψ(CH2NBu)Nle = CCCC[C@@H](C(=O)[*:2])N(CCCC)C[C@@H](C)N[*:1]; X10 = CCCCCC[C@@H](OC[C@@H](CC)N[*:1])[C@@H](C)C(=O)[*:2]; X1 = CCCCCC[C@@H](OC[C@@H](C)N[*:1])[C@@H](C)C(=O)[*:2]; X8 = CCCCCC[C@@H](O[C@@H](C)CN[*:1])[C@@H](C)C(=O)[*:2]; X4 = CCCCCCN(CCN[*:1])[C@@H](C)C(=O)[*:2]; Gly(cHept) = N[C@H](C(=O)O)C1CCCCCC1; aThr = C[C@H](O)[C@H](N)C(=O)O; NMeL = CN[C@@H](CC(C)C)C(=O)O; Chg = N[C@H](C(=O)O)C1CCCCC1; NMeNva = CCC[C@H](NC)C(=O)O; Propyl(3-NMe2) = CN(C)CCC*; hSer = N[C@@H](CCO)C(=O)O; Dap = NC[C@H](N)C(=O)O; Propyl(3-NH2) = NCCC*; NH(CH2)3NH2 = NCCCN*
experimental readout: MIC (µM)
Reply numerically in µM, unit not repeated.

Q) Would you mind telling me what MIC value was observed for CCCCCCCCCC[C@H]1OC(=O)CNC(=O)[C@H]([C@H](C)O)NC(=O)[C@H](CO)NC(=O)[C@H]([C@H](C)CC)NC(=O)[C@H](CC(C)C)N(C)C(=O)[C@@H]1C ?
A) 0.016

Q) Would you mind telling me what MIC value was observed for CCCCCC[C@H]1OC[C@@H](C)NC(=O)[C@H](CC(=O)NCCCN)NC(=O)[C@H](CN)NC(=O)[C@H](C2CCCCCC2)NC(=O)[C@H](CCC)N(C)C(=O)[C@@H]1C (cyclo(D(NH(CH2)3NH2)[X1][NMeNva][Gly(cHept)][Dap])) ?
A) 0.39

Q) Would you mind telling me what MIC value was observed for CCCCCC[C@H]1OC(=O)CNC(=O)[C@H]([C@H](C)O)NC(=O)[C@H](CN)NC(=O)[C@H](C2CCCCC2)NC(=O)[C@H](CC)N(C)C(=O)[C@@H]1C ?
A) 0.14

Q) Would you mind telling me what MIC value was observed for CCCCCCN1CCNC(=O)[C@H]([C@H](C)O)NC(=O)[C@H](CN)NC(=O)[C@H](C2CCCCC2)NC(=O)[C@H](CC(C)C)N(C)C(=O)[C@@H]1C (cyclo([Chg][Dap][aThr][X4][NMeL])) ?
A) 0.5

Q) Would you mind telling me what MIC value was observed for CCC[C@H]1C(=O)N[C@@H](C2CCCCCC2)C(=O)N[C@@H](CN)C(=O)N[C@@H]([C@H](C)O)C(=O)NCC(=O)O[C@H](CC2CC3(CCC3)C2)[C@@H](C)C(=O)N1C ?
A) 0.009

Q) Would you mind telling me what MIC value was observed for CCCCCC[C@H]1OC(=O)CNC(=O)[C@H]([C@H](C)O)NC(=O)[C@H](CN)NC(=O)[C@H](Cc2ccccc2)NC(=O)[C@H](CC(C)C)N(C)C(=O)[C@@H]1C ?
A) 0.8

Further cases:
Q) Would you mind telling me what MIC value was observed for CC[C@@H](C)[C@@H]1NC(=O)[C@H](CC(C)C)N(C)C(=O)[C@H](C)[C@@H](CCCCCC(F)(F)F)OC(=O)CNC(=O)[C@H]([C@H](C)O)NC(=O)[C@H](CN)NC1=O ?
A) 0.39

Q) Would you mind telling me what MIC value was observed for CCCCCC[C@H]1OC[C@@H](C)NC(=O)[C@H](CCOCCCN)NC(=O)[C@H](CN)NC(=O)[C@H](C2CCCCCC2)NC(=O)[C@H](CCC)N(C)C(=O)[C@@H]1C (cyclo([Dap][hSer](Propyl(3-NH2))[X1][NMeNva][Gly(cHept)])) ?
A) 0.2

Q) Would you mind telling me what MIC value was observed for CCCCCC[C@H]1OC[C@@H](C)NC(=O)[C@H](COCCCN)NC(=O)[C@H](CN)NC(=O)[C@H](C2CCCCC2)NC(=O)[C@H](CC(C)C)N(C)C(=O)[C@@H]1C (cyclo([Chg][Dap]S(Propyl(3-NH2))[X1][NMeL])) ?
A) 0.28

Q) Would you mind telling me what MIC value was observed for CCCCCC[C@H]1OC(=O)CNC(=O)[C@H]([C@H](C)O)NC(=O)[C@H](CN)NC(=O)[C@H](C2CCCCC2)NC(=O)[C@H](CC(C)C)N(C)C(=O)[C@@H]1C ?
A) 0.059

Q) Would you mind telling me what MIC value was observed for CC(C)C[C@H]1C(=O)N[C@@H](C2CCCCC2)C(=O)N[C@@H](CN)C(=O)N[C@@H]([C@H](C)O)C(=O)NCC(=O)O[C@H](CCCCCCC(C)(C)O)[C@@H](C)C(=O)N1C ?
A) 0.55

Q) Would you mind telling me what MIC value was observed for CCCCCC[C@H]1O[C@@H](C)CNC(=O)[C@H]([C@H](C)O)NC(=O)[C@H](CN)NC(=O)[C@H](C2CCCCC2)NC(=O)[C@H](CC(C)C)N(C)C(=O)[C@@H]1C (cyclo([Chg][Dap][aThr][X8][NMeL])) ?
A) 0.1

Q) Would you mind telling me what MIC value was observed for CCCCCC[C@H]1OCCCNC(=O)[C@H]([C@H](C)O)NC(=O)[C@H](CN)NC(=O)[C@H](C2CCCCC2)NC(=O)[C@H](CC(C)C)N(C)C(=O)[C@@H]1C ?
A) 0.39

Q) Would you mind telling me what MIC value was observed for CCCCCC[C@H]1OC[C@@H](C)NC(=O)[C@H](COCCCN(C)C)NC(=O)[C@H](CN)NC(=O)[C@H](C2CCCCC2)NC(=O)[C@H](CC(C)C)N(C)C(=O)[C@@H]1C (cyclo([Chg][Dap]S(Propyl(3-NMe2))[X1][NMeL])) ?
A) 0.39

Q) Would you mind telling me what MIC value was observed for CCCCCC[C@H]1OC[C@@H](C)NC(=O)[C@H](CN(C)CCCN)NC(=O)[C@H](CN)NC(=O)[C@H](C2CCCCCC2)NC(=O)[C@H](CCC)N(C)C(=O)[C@@H]1C ?
A) 0.39

Q) Would you mind telling me what MIC value was observed for CCCC[C@H]1C(=O)N(C)[C@@H](CC(C)C)C(=O)N[C@@H](C2CCCCC2)C(=O)N[C@@H](CN)C(=O)N[C@@H]([C@H](C)O)C(=O)N[C@H](C)CN1CCCC (cyclo([Chg][Dap][aThr][dAlaψ(CH2NBu)Nle][NMeL])) ?
A) 0.017

Q) Would you mind telling me what MIC value was observed for CCCCCC[C@H]1OC[C@@H](CC)NC(=O)[C@H]([C@H](C)O)NC(=O)[C@H](CN)NC(=O)[C@H](C2CCCCC2)NC(=O)[C@H](CC(C)C)N(C)C(=O)[C@@H]1C (cyclo([Chg][Dap][aThr][X10][NMeL])) ?
A) 0.024

Q) Would you mind telling me what MIC value was observed for CCCC(C)(C)CC[C@H]1OC(=O)CNC(=O)[C@H]([C@H](C)O)NC(=O)[C@H](CN)NC(=O)[C@H]([C@H](C)CC)NC(=O)[C@H](CC(C)C)N(C)C(=O)[C@@H]1C ?
A) 0.034

Q) Would you mind telling me what MIC value was observed for CCC[C@H]1C(=O)N[C@@H](C2CCCCCC2)C(=O)N[C@@H](CN)C(=O)N[C@@H]([C@H](C)O)C(=O)NCC(=O)O[C@H](CC2CC3CCC2C3)[C@@H](C)C(=O)N1C (stereo in doubt; 27) ?
A) 0.009
